For each record, write down the corresponding pKi.
pKi field: float, defined as -log10 of concentration (mol/L).

Report the value of pKi obtained on 5-HT2A receptors (Rattus norvegicus, UniProt P14842) for COc1ccc2[nH]cc(CCCN3CCC(Cc4noc5cc(F)ccc45)C3)c2c1.Cl (stereo not shown) [Ex. 9, hydrochloride] .
Sequence (P14842 whole entry): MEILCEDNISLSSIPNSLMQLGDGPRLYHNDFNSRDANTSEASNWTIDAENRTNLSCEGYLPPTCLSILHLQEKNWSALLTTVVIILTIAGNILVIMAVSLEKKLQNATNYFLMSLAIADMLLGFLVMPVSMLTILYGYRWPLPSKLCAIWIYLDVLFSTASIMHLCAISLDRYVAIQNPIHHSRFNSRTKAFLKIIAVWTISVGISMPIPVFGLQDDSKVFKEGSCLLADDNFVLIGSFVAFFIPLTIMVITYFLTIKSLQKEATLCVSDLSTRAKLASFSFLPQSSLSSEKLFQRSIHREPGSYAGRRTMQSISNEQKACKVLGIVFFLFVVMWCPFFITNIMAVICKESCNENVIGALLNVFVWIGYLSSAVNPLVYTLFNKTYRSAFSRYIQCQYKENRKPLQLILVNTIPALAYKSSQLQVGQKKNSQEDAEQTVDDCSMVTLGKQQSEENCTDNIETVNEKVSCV
8.49

Report the value of pKi obtained on 5-HT2A receptors (Rattus norvegicus, UniProt P14842) for COc1ccc2[nH]cc(CCCN3CCCC(C(=O)c4ccc(F)cc4)CC3)c2c1.Cl (stereo not shown) [Ex. 7, hydrochloride] .
8.57

Report the value of pKi obtained on 5-HT2A receptors (Rattus norvegicus, UniProt P14842) for Cl.O=C(CC1CCN(CCCc2c[nH]c3ccc(F)cc23)C1)c1ccc(F)cc1 (stereo not shown) [Ex. 8, hydrochloride] .
8.18

Report the value of pKi obtained on 5-HT2A receptors (Rattus norvegicus, UniProt P14842) for COc1ccc2[nH]cc(CCCN3CCC(C(=O)c4ccc(F)cc4)CC3)c2c1.Cl [Ref. A, hydrochloride, reference compound] .
8.07
